target: recombinant NanA of DSM20566 (Streptococcus pneumoniae); settings: rNanA of DSM20566, MUNANA substrate
Sequence (P62575 116-1035 limits assumed): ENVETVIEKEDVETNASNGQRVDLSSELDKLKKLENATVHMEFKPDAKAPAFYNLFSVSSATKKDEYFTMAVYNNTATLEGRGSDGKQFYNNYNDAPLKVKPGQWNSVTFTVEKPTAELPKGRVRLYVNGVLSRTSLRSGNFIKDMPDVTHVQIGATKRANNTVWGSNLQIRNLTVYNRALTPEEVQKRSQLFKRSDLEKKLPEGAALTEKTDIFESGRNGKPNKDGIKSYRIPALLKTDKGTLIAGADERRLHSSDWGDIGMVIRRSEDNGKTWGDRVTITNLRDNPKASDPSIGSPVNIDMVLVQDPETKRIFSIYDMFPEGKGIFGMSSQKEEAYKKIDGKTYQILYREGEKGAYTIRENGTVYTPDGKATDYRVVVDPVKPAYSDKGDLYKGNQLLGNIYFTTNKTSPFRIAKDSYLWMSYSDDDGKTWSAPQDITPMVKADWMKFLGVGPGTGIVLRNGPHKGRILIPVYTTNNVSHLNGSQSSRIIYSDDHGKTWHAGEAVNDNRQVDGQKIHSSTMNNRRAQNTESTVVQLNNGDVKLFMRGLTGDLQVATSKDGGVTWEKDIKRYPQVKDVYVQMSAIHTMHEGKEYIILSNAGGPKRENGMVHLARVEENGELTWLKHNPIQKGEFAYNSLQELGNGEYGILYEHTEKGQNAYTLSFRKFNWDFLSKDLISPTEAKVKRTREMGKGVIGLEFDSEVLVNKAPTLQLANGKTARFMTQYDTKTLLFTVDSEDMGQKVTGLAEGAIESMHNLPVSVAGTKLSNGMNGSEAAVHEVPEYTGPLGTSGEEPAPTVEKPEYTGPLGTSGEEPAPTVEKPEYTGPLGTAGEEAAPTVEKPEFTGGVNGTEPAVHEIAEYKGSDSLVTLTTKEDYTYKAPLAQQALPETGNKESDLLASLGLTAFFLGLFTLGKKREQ
ENDPOINT_LABEL: Ki
In your response, put the unit directly after the numeric value.

Measured Ki, CCC(CC)O[C@@H]1C=C(C(=O)O)C[C@H](N)[C@H]1NC(C)=O [oseltamivir, Oseltamivir carboxylate] : 230 nM

* * *

# S. pneumoniae CJ9400: MIC values follow
Lab book: enter the figure in µM, no units written.

COMPOUND: COc1cc2oc(-c3ccc(O)cc3O)c(CC=C(C)C)c(=O)c2c(O)c1/C=C/C(C)C
UNIT_OF_MEASUREMENT: µM
MEASURED_RESULT: 3.45

Continue with the next compound.
Reported S. pneumoniae CJ9400 MIC for item "CO[C@H]1/C=C/O[C@@]2(C)Oc3c(C)c(O)c4c(O)c(c(/C=N/N5CCN(C)CC5)c(O)c4c3C2=O)NC(=O)/C(C)=C\C=C\[C@H](C)[C@H](O)[C@@H](C)[C@@H](O)[C@@H](C)[C@H](OC(C)=O)[C@@H]1C" was 0.032

* * *

tested on: S. pneumoniae CF6937; experiment: Biofilm inhibition assay; format: cell-based; conditions: CF6937, TSB, 24 h
ENDPOINT_LABEL: 90% minimal biofilm inhibitory concentration

COMPOUND: CO[C@H]1/C=C/O[C@@]2(C)Oc3c(C)c(O)c4c(O)c(c(/C=N/N5CCN(C)CC5)c(O)c4c3C2=O)NC(=O)/C(C)=C\C=C\[C@H](C)[C@H](O)[C@@H](C)[C@@H](O)[C@@H](C)[C@H](OC(C)=O)[C@@H]1C
MEASURED_RESULT: 0.020 ± 0.002 µM
--
COMPOUND: CCC(CC)O[C@@H]1C=C(C(=O)O)C[C@H](N)[C@H]1NC(C)=O [oseltamivir, Oseltamivir carboxylate]
MEASURED_RESULT: > 50 µM
--
COMPOUND: O=C(CCc1ccccc1)C[C@@H]1C[C@@H](c2ccccc2)c2c(cc(/C=C/c3ccccc3)oc2=O)O1
MEASURED_RESULT: > 50 µM
--
COMPOUND: CC(=O)N[C@H]1[C@H]([C@H](O)[C@H](O)CO)OC(C(=O)O)=C[C@@H]1O
MEASURED_RESULT: > 50 µM
--
COMPOUND: CC(=O)N[C@H]1[C@H]([C@H](O)[C@H](O)CO)OC(C(=O)O)=C[C@@H]1N=C(N)N
MEASURED_RESULT: > 50 µM

Now consider a different compound.
Documented 90% minimal biofilm inhibitory concentration of "COc1cc2oc(-c3ccc(O)cc3O)c(CC=C(C)C)c(=O)c2c(O)c1/C=C/C(C)C" : 2.73 ± 0.27 µM

* * *

assay: Erythrocyte hemolysis assay; type: cell-based, human; conditions: human, erythrocytes
ENDPOINT_LABEL: hemolysis at 3 h, 31.6 µM (%)
# value in %; strip the unit string

molecule "COc1cc2oc(-c3ccc(O)cc3O)c(CC=C(C)C)c(=O)c2c(O)c1/C=C/C(C)C" , hemolysis at 3 h, 31.6 µM observed: 20

* * *

Bactericidal concentration for assorted compounds
tested on: S. pneumoniae CF6937; experiment: Minimal bactericidal concentration; format: cell-based; details: viability reduced by ≥99.9%

Some compounds with recorded Bactericidal concentration:
COMPOUND: CO[C@H]1/C=C/O[C@@]2(C)Oc3c(C)c(O)c4c(O)c(c(/C=N/N5CCN(C)CC5)c(O)c4c3C2=O)NC(=O)/C(C)=C\C=C\[C@H](C)[C@H](O)[C@@H](C)[C@@H](O)[C@@H](C)[C@H](OC(C)=O)[C@@H]1C
ASSAY_TARGET: S. pneumoniae CF6937
ENDPOINT_LABEL: Bactericidal concentration
MEASURED_RESULT: 0.05 ± 0.03 µM
//
COMPOUND: CC(=O)N[C@H]1[C@H]([C@H](O)[C@H](O)CO)OC(C(=O)O)=C[C@@H]1O
ASSAY_TARGET: S. pneumoniae CF6937
ENDPOINT_LABEL: Bactericidal concentration
MEASURED_RESULT: > 50 µM

GET /value?item= "O=C(CCc1ccccc1)C[C@@H]1C[C@@H](c2ccccc2)c2c(cc(/C=C/c3ccccc3)oc2=O)O1" &field=Bactericidal concentration returns > 50 µM

* * *

test system: S. pneumoniae DSM14378; experiment: Biofilm inhibition assay; format: cell-based; conditions: DSM14378, TSB, 24 h
Known 90% minimal biofilm inhibitory concentration of a selection of molecules

MOLECULE: O=C(CCc1ccccc1)C[C@@H]1C[C@@H](c2ccccc2)c2c(cc(/C=C/c3ccccc3)oc2=O)O1
ASSAY_TARGET: S. pneumoniae DSM14378
MEASURED_RESULT: > 50 µM

MOLECULE: COc1cc2oc(-c3ccc(O)cc3O)c(CC=C(C)C)c(=O)c2c(O)c1/C=C/C(C)C
ASSAY_TARGET: S. pneumoniae DSM14378
MEASURED_RESULT: 2.37 ± 0.67 µM

// next entry
Short answer for CCC(CC)O[C@@H]1C=C(C(=O)O)C[C@H](N)[C@H]1NC(C)=O [oseltamivir, Oseltamivir carboxylate] : 90% minimal biofilm inhibitory concentration was > 50 µM
